- System: SK-OV-3
- experiment.summary: NCI tumour cell line growth inhibition, 48 h
Activity calls are given as the source filed them. Rule as the data show it: active = GI50 up to about 1.1 µM and inactive = higher.
Classes used: label 1 for active, label 0 for inactive

>  <compound>
Cc1ccc(S(=O)(=O)NC(=O)NC(CC(=O)O)C(=O)O)cc1 (configuration not stated)

>  <label.class>
label 0

$$$$
>  <compound>
CSc1ccc(-c2cn3ccsc3n2)c(O)c1

>  <label.class>
label 0

$$$$
>  <compound>
COc1cccc2c1C(=O)c1c(O)c3c(c(O)c1C2=O)C[C@@](O)(C(C)=O)C[C@@H]3OC1CC([N+]([O-])(Cc2ccccc2)Cc2ccccc2)C(O)C(C)O1 (some centres not stated)

>  <label.class>
label 0

$$$$
>  <compound>
CCOP(=O)(OCC)C(Cc1ccc(Cl)cc1)NS(=O)(=O)c1ccc(C)cc1 (configuration not stated)

>  <label.class>
label 0

$$$$
>  <compound>
CN(C)c1ccc(/C=N/N=C2\C(=O)Nc3c(Cl)cc(Cl)cc32)cc1

>  <label.class>
label 0

$$$$
>  <compound>
CN1C(=O)C(=O)c2cc3c(c4c2c1cc1ccccc14)OCO3

>  <label.class>
label 0

$$$$
>  <compound>
C=C1CC(Cn2cc(C)c(=O)[nH]c2=O)(c2ccc(Cl)cc2)OC1=O (configuration not stated)

>  <label.class>
label 0

$$$$
>  <compound>
CC(Oc1ccc(OCC2CCCCC2)cc1)C(=O)N(CCO)CCO (configuration not stated)

>  <label.class>
label 0

$$$$
>  <compound>
Cc1cc(C)nc(SC(C)C(=O)N/N=C/c2ccc(OCc3ccccc3)cc2)n1 (configuration not stated)

>  <label.class>
label 0

$$$$
>  <compound>
CCCCCCCCCCCCCC/C(C(=O)OC)=C(/O)C(=O)OCC

>  <label.class>
label 0

$$$$
>  <compound>
O=C(NC(=S)NC(=O)c1cc(O)c(O)c(O)c1)c1cc(O)c(O)c(O)c1

>  <label.class>
label 0

$$$$
>  <compound>
O=c1c2ccccc2nc2n1CCc1c-2[nH]c2ccccc12

>  <label.class>
label 0

$$$$
>  <compound>
CC(C)c1cccc(=O)c(O)c1

>  <label.class>
label 0

$$$$
>  <compound>
NC(Cc1ncccn1)C(=O)O (configuration not stated)

>  <label.class>
label 0

$$$$
>  <compound>
Cc1cc(C)c(S(=O)(=O)N(CCCN)OCCCN)c(C)c1

>  <label.class>
label 0

$$$$
>  <compound>
Nc1nnc2n1C(=O)C(C1(C3=Nc4nnc(N)n4C3=O)Cc3ccccc3C1=O)=N2

>  <label.class>
label 0

$$$$
>  <compound>
O=c1oc2ccccc2cc1-c1ccc([N+](=O)[O-])cc1

>  <label.class>
label 0

$$$$
>  <compound>
O=C(O)c1ccc2nc(-c3ccccn3)c(-c3ccccn3)nc2c1

>  <label.class>
label 0

$$$$
>  <compound>
CC1=NN(c2ccccc2)C(=O)C1/N=N/c1ccc(Br)c(C)c1 (configuration not stated)

>  <label.class>
label 0

$$$$
>  <compound>
Cn1c(Nc2ccccc2)c(/C=N\c2ccccc2)c(=O)n(C)c1=O

>  <label.class>
label 0

$$$$
>  <compound>
CCC(=O)NCCc1c2c3c(ccnc3c3ncsc13)-c1ccccc1N2

>  <label.class>
label 0

$$$$
>  <compound>
COc1ccc(OC)c(C(=O)c2cccc(C(=O)c3cc(OC)ccc3OC)n2)c1

>  <label.class>
label 0

$$$$
>  <compound>
CCCNC1=C2CC(C)CC(OC)[C@@H](O)[C@H](C)/C=C(\C)C(OC(N)=O)C(OC)/C=C\C=C(/C)C(=O)NC(=CC1=O)C2=O (some centres not stated)

>  <label.class>
label 1

$$$$
>  <compound>
CO/N=C\c1cc(O)c(O)c(/C=N/OC)c1

>  <label.class>
label 0

$$$$
>  <compound>
CC(C)Cc1cc(CCC(=O)Nc2ccccc2[N+](=O)[O-])nc(NC#N)n1

>  <label.class>
label 0

$$$$
>  <compound>
N#CCc1nc(-c2cc3c(ccc4ccccc43)oc2=O)cs1

>  <label.class>
label 0

$$$$
>  <compound>
C=C[C@@]1(O)CCCC2=C(C(=O)OCC)CC[C@]21C

>  <label.class>
label 0

$$$$

###

- System: SK-OV-3
- experiment.summary: NCI tumour cell line growth inhibition, 48 h
Activity calls are given as the source filed them. Rule as the data show it: active = GI50 up to about 1.1 µM and inactive = higher.
Classes used: TRUE for active, FALSE for inactive

>  <compound>
CC1(C)O[C@@H]2[C@@H](COC(C)(C)O[C@H]2C2SCCCS2)O1

>  <system.tested>
SK-OV-3

>  <label.class>
FALSE

$$$$
>  <compound>
CC(C)(C)C1=C(Br)C(C(C)(C)C)OP1(=O)O (stereo unspecified)

>  <system.tested>
SK-OV-3

>  <label.class>
FALSE

$$$$
>  <compound>
Cc1cn(CC2=NCCCN2)c(=O)[nH]c1=O

>  <system.tested>
SK-OV-3

>  <label.class>
FALSE

$$$$
>  <compound>
CC(=O)OCc1cc(=O)n(C)c2c3c4c(cc12)c(C)cc(=O)n4CO3

>  <system.tested>
SK-OV-3

>  <label.class>
FALSE

$$$$
>  <compound>
N[C@H]1CCCC[C@@H]1N1C(=O)c2ccccc2C1(O)c1ccc(Cl)cc1 (stereo partly specified)

>  <system.tested>
SK-OV-3

>  <label.class>
FALSE

$$$$
>  <compound>
Cc1cc(C)nc(NS(=O)(=O)c2ccc(NC(=O)c3cccc4c(=O)c5ccccc5[nH]c34)cc2)n1

>  <system.tested>
SK-OV-3

>  <label.class>
TRUE

$$$$
>  <compound>
O=C(NCc1cccnc1)NCc1cccnc1

>  <system.tested>
SK-OV-3

>  <label.class>
FALSE

$$$$
>  <compound>
Nc1ccn(C2OC(CO)C(O)C2O)c(=O)n1 (stereo unspecified)

>  <system.tested>
SK-OV-3

>  <label.class>
FALSE

$$$$
>  <compound>
O=[N+]([O-])c1ccc(C(c2c[nH]c3ccccc23)c2c[nH]c3ccccc23)cc1

>  <system.tested>
SK-OV-3

>  <label.class>
FALSE

$$$$
>  <compound>
O=C(NCCCN1CCN(CCCNC(=O)Nc2cc(Cl)ccc2Cl)CC1)Nc1cc(Cl)ccc1Cl

>  <system.tested>
SK-OV-3

>  <label.class>
FALSE

$$$$
>  <compound>
COC(=O)c1cc(-c2ccc(OC)c(OC)c2)oc1-c1ccc(OC)c(OC)c1

>  <system.tested>
SK-OV-3

>  <label.class>
FALSE

$$$$
>  <compound>
O=C(NCCCCNCCCNC(=O)c1ccccc1)c1ccccc1

>  <system.tested>
SK-OV-3

>  <label.class>
FALSE

$$$$
>  <compound>
NC(=O)CC(N/C=C1/N=C(c2ccccc2)OC1=O)C(=O)O (stereo unspecified)

>  <system.tested>
SK-OV-3

>  <label.class>
FALSE

$$$$
>  <compound>
c1ccc2c(c1)[C@@H]1O[C@@H]1[C@@]13O[C@@]21[C@H]1O[C@H]1c1ccccc13

>  <system.tested>
SK-OV-3

>  <label.class>
FALSE

$$$$
>  <compound>
O=c1ccn([C@@H]2C[C@H](CO)C[S+]([O-])C2)c(=O)[nH]1 (stereo partly specified)

>  <system.tested>
SK-OV-3

>  <label.class>
FALSE

$$$$
>  <compound>
O=C1/C(=C/c2ccccc2S)N=C(c2ccccc2)N1c1nc2c(Cl)cc(Cl)cc2s1

>  <system.tested>
SK-OV-3

>  <label.class>
FALSE

$$$$
>  <compound>
Cc1ccc(NC(=O)CC/C(CC(=O)C(C)(C)C)=N/Nc2nnc(C)n2N)cc1C

>  <system.tested>
SK-OV-3

>  <label.class>
FALSE

$$$$
>  <compound>
CC(C)(C)OC(=O)NCC(=O)NC1CC=CCC1NC(=O)CNC(=O)OC(C)(C)C (stereo unspecified)

>  <system.tested>
SK-OV-3

>  <label.class>
FALSE

$$$$
>  <compound>
CC(=O)c1ccccc1NS(=O)(=O)c1ccc2nc(C)n(NS(=O)(=O)c3ccccc3C(C)=O)c(=O)c2c1

>  <system.tested>
SK-OV-3

>  <label.class>
FALSE

$$$$
>  <compound>
c1ccc(/N=C2\c3ccsc3/C(=N/c3ccccc3)c3ccsc32)cc1

>  <system.tested>
SK-OV-3

>  <label.class>
FALSE

$$$$
>  <compound>
Cc1cn([C@H]2C[C@](C)(CO)N(C)O2)c(=O)[nH]c1=O

>  <system.tested>
SK-OV-3

>  <label.class>
FALSE

$$$$

###

- Test system: KM-20L2
- experiment.summary: NCI tumour cell line growth inhibition, 48 h
Calls of active or inactive are those of the source. Rule as the data show it: active = GI50 up to about 1.1 µM and inactive = higher.
Classes used: active, inactive

>  <compound>
CC1(C)C(c2ccccc2)=NN(O)c2ccccc21

>  <label.class>
inactive

$$$$
>  <compound>
COc1cc([C@@H]2c3cc4c(cc3C(N)C3COC(=O)[C@@H]32)OCO4)cc(OC)c1O (some centres not stated)

>  <label.class>
active

$$$$
>  <compound>
CCOC(=O)c1ccc(NC(=O)SCCC(=O)O)cc1

>  <label.class>
inactive

$$$$
>  <compound>
CC(N)C(C)c1ccccc1 (configuration not stated)

>  <label.class>
inactive

$$$$
>  <compound>
CC(C)Cc1cc(CCC(=O)Nc2ccccc2[N+](=O)[O-])nc(NC#N)n1

>  <label.class>
inactive

$$$$
>  <compound>
[N-]=[N+]=Nc1ccccc1Oc1ccccc1

>  <label.class>
inactive

$$$$
>  <compound>
COc1ccc(-c2onc(-c3ccc([N+](=O)[O-])cc3)c2C2=NCCCN2)cc1

>  <label.class>
inactive

$$$$
>  <compound>
O=C(O)/C(Cl)=C(\Cl)C(=O)c1ccccc1

>  <label.class>
inactive

$$$$
>  <compound>
CC(C)c1cccc2sc(NC(=O)C(=O)CC(=O)c3ccc(F)cc3)nc12

>  <label.class>
inactive

$$$$
>  <compound>
CSc1ccc(-c2cn3ccsc3n2)c(O)c1

>  <label.class>
inactive

$$$$
>  <compound>
CC(=O)OC(CCC1(C)OC1COc1ccc(CCNC(=O)c2ccccc2)cc1)C(C)(C)OC(C)=O (configuration not stated)

>  <label.class>
inactive

$$$$
>  <compound>
O=C1NC2C(CCO)CC=C[C@H]2c2cc3c(cc21)OCO3 (some centres not stated)

>  <label.class>
inactive

$$$$
>  <compound>
Cc1cc2nc3c(=O)n(C)c(=O)nc-3n(-c3ccc(Cl)cc3)c2cc1C

>  <label.class>
inactive

$$$$
>  <compound>
COC(=O)C(C(=O)OC)C1CCCC(=O)C1 (configuration not stated)

>  <label.class>
inactive

$$$$
>  <compound>
Cc1cc(NS(=O)(=O)c2ccc(NC(=O)c3cccc4c(Nc5ccc(S(=O)(=O)Nc6cc(C)on6)cc5)c5ccc(Cl)cc5nc34)cc2)no1

>  <label.class>
inactive

$$$$
>  <compound>
C=C(C=O)[C@@H]1C2OC(=O)C(=C)[C@@H]2CC(O)[C@@]1(C)CC (some centres not stated)

>  <label.class>
inactive

$$$$
>  <compound>
CN(C)c1ccc(C(C#N)NNC(=O)Cc2ccccc2)cc1 (configuration not stated)

>  <label.class>
inactive

$$$$
>  <compound>
Cc1cccc(NC2=NC(=O)C(CC(=O)Nc3ccc(Cl)cc3C)S2)c1 (configuration not stated)

>  <label.class>
inactive

$$$$
>  <compound>
O=C1c2ccccc2C2CCC1c1ccccc12 (configuration not stated)

>  <label.class>
inactive

$$$$
>  <compound>
CC1=NN(c2ccccc2)C(=O)C1/N=N/c1ccc(Br)c(C)c1 (configuration not stated)

>  <label.class>
inactive

$$$$
>  <compound>
O=c1ccn([C@@H]2C[C@H](CO)C[S+]([O-])C2)c(=O)[nH]1 (some centres not stated)

>  <label.class>
inactive

$$$$
>  <compound>
Cc1cc(C)nc(NS(=O)(=O)c2ccc(NC(=O)c3cccc4c(=O)c5ccccc5[nH]c34)cc2)n1

>  <label.class>
inactive

$$$$
